Entry source: patent US20160362487A1

Item-by-item account of Kd
Target: T1, human IL-33 (R&D Systems, #3625-IL-010/CF) (human, UniProt O95760 112-270)
T1 construct: Commercial recombinant protein; also called hIL-33; interleukin-33
T1 sequence (looked up): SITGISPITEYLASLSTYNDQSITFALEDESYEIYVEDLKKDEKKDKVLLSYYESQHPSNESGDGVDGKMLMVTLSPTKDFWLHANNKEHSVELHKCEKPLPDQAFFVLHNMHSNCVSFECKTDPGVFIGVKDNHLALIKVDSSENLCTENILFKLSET
Assay: SPR 37C pH7.4, mAb captured
Report the value in nM with no unit label.

*Q* Which Kd value belongs to H4H9629P (antibody, human IgG4, V domains shown, Human IgG4 Fc (H4H)) VH: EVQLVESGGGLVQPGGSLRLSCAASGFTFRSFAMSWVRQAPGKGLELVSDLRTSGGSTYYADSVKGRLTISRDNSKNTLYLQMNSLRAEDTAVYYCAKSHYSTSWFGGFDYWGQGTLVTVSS VL: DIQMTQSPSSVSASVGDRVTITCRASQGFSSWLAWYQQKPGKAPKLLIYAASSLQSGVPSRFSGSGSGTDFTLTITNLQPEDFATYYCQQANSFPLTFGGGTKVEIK ?
*A* 0.508

// switching to the query binder
*Q* Which Kd value belongs to H4H9659P (antibody, human IgG4, V domains shown, Human IgG4 Fc (H4H)) VH: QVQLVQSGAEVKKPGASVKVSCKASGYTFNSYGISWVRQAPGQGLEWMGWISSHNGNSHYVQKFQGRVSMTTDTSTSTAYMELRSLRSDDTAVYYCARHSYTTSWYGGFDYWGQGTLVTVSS VL: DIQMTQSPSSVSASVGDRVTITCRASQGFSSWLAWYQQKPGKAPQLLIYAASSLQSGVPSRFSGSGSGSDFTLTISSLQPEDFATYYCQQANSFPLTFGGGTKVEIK ?
*A* 0.57
